Biological target: Inhibitor of nuclear factor kappa-B kinase subunit beta (Homo sapiens)
Sequence (O14920 whole entry): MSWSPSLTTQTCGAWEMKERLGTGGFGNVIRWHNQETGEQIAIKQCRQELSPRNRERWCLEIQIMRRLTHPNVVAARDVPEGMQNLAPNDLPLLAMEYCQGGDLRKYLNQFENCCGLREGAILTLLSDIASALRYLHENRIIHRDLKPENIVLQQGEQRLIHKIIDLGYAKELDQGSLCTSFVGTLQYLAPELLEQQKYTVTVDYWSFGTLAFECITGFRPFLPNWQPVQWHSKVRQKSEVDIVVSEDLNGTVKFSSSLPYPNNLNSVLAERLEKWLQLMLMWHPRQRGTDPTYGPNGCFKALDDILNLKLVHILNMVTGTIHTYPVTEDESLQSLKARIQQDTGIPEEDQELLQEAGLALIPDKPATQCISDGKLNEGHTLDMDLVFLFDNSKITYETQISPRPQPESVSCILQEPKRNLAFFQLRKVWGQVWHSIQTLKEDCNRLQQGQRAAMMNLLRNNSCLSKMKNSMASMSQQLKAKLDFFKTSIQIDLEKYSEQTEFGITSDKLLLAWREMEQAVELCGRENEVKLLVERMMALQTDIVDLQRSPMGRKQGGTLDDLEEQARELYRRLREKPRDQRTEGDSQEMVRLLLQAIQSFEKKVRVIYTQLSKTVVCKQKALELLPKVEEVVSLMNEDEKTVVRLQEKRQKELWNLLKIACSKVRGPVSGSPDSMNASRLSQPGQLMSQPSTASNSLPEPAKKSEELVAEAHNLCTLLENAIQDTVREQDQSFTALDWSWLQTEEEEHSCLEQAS
Experiment: Inhibition of human recombinant C-terminal FLAG-epitope-tagged IKK2 expressed in baculovirus using biotinylated IkappaBalpha peptide as substrate assessed as decrease in [gamma-33P]-ATP incorporation in substrate after 30 mins by scintillation counting method
So I've got a bunch of compounds here, and I need their IC50 values.

These recorded examples may help you get a feel for the data.
# query: IC50 | item NC(=O)c1nn(-c2ccc3c(c2)OCO3)c2c1CCc1ccc(NC(=O)c3cc(N4CCNCC4)ncc3Cl)cc1-2 | system: Inhibitor of nuclear factor kappa-B kinase subunit beta (Homo sapiens)
≤ 1 µM

# query: IC50 | item CN(C)CC(=O)Nc1ccc(C(=O)Nc2ccc3c(c2)-c2c(c(C(N)=O)nn2-c2ccc4c(c2)OCO4)CC3)c(Cl)c1 | system: Inhibitor of nuclear factor kappa-B kinase subunit beta (Homo sapiens)
1 to 10 µM

# query: IC50 | item CC(C)c1ccc(-n2nc(C(N)=O)c3c2-c2cc(NC(=O)c4ccccc4Cl)ccc2CC3)cc1 | system: Inhibitor of nuclear factor kappa-B kinase subunit beta (Homo sapiens)
1 to 10 µM

# query: IC50 | item CNC(=O)/C=C/c1ccc(-n2nc(C(N)=O)c3c2-c2cc(N)ccc2CC3)cc1 | system: Inhibitor of nuclear factor kappa-B kinase subunit beta (Homo sapiens)
1 to 10 µM

Please state IC50 for every compound in the list that follows.
1. NC(=O)c1nn(-c2ccc(OCC(O)CO)cc2)c2c1CCc1ccc(NC(=O)c3ccccc3Cl)cc1-2 (stereo not drawn)
2. NC(=O)c1nn(-c2ccc(S(N)(=O)=O)cc2)c2c1CCc1ccc(N)cc1-2
3. NC(=O)c1nn(-c2ccc(S(N)(=O)=O)cc2)c2c1CCc1ccc(NC(=O)c3ccc(F)cc3)cc1-2
4. CCCS(=O)(=O)c1ccc(-n2nc(C(N)=O)c3c2-c2cc(NC(=O)c4cccnc4Cl)ccc2CC3)cc1

≤ 1 µM
≤ 1 µM
≤ 1 µM
1 to 10 µM

Please state IC50 for every compound in the list that follows.
1. CSc1ccc(-n2nc(C(N)=O)c3c2-c2cc(NC(=O)c4ccccc4Cl)ccc2CC3)cc1
2. COc1cccc(-n2nc(C(N)=O)c3c2-c2cc(NC(=O)c4ccccc4Cl)ccc2CC3)c1
3. C=CCN(CC=C)S(=O)(=O)c1ccc(-n2nc(C(N)=O)c3c2-c2cc(NS(C)(=O)=O)ccc2CC3)cc1
4. NC(=O)c1nn(-c2ccc(O)cc2)c2c1CCc1ccc(NC(=O)c3cc4c(cc3Cl)OCO4)cc1-2

1 to 10 µM
1 to 10 µM
1 to 10 µM
≤ 1 µM

Please state IC50 for every compound in the list that follows.
1. CN(C)CCN(C)c1cc(C(=O)Nc2ccc3c(c2)-c2c(c(C(N)=O)nn2-c2ccc(F)cc2)CC3)c(Cl)cn1
2. C[C@@H]1CN(c2cc(C(=O)Nc3ccc4c(c3)-c3c(c(C(N)=O)nn3-c3ccc(F)cc3)CC4)c(Cl)cn2)C[C@H](C)N1C
3. COc1ccc(CNc2ccc3c(c2)-c2c(c(C(N)=O)nn2-c2ccc(S(N)(=O)=O)cc2)CC3)cc1
4. C[S+]([O-])c1ccc(-n2nc(C(N)=O)c3c2-c2cc(NC(=O)c4cc5c(cc4Cl)OCO5)ccc2CC3)cc1 (stereo not drawn)

["≤ 1 µM", "≤ 1 µM", "1 to 10 µM", "≤ 1 µM"]

Please state IC50 for every compound in the list that follows.
1. CNC(=O)/C=C/c1ccc(-n2nc(C(N)=O)c3c2-c2cc(NS(C)(=O)=O)ccc2CC3)cc1
2. NC(=O)c1nn(-c2ccc(F)cc2)c2c1CCc1ccc(NC(=O)c3cc(CN4CCOCC4)ncc3Cl)cc1-2

≤ 1 µM
≤ 1 µM

Please state IC50 for every compound in the list that follows.
1. NC(=O)c1nn(-c2ccc(S(N)(=O)=O)cc2)c2c1CCc1ccc(NC(=O)c3ccccc3Br)cc1-2
2. C[C@H]1CN(c2cc(C(=O)Nc3ccc4c(c3)-c3c(c(C(N)=O)nn3-c3ccc(F)cc3)CC4)c(Cl)cn2)CCN1C

≤ 1 µM
≤ 1 µM

Please state IC50 for every compound in the list that follows.
1. NC(=O)c1nn(-c2ccc3c(c2)OCO3)c2c1CCc1ccc(NC(=O)c3cccnc3N)cc1-2
2. COCCN1CCN(c2cc(C(=O)Nc3ccc4c(c3)-c3c(c(C(N)=O)nn3-c3ccc(F)cc3)CC4)c(Cl)cn2)CC1
3. CS(=O)(=O)c1ccc(-n2nc(C(N)=O)c3c2-c2cc(NC(=O)c4cn[nH]c4)ccc2CC3)cc1
4. NC(=O)c1nn(-c2ccc3c(c2)OCO3)c2c1CCc1ccc(NC(=O)CNCC3CC3)cc1-2
5. NC(=O)c1nn(-c2ccc(C(=O)O)cc2)c2c1CCc1ccc(NC(=O)c3ccccc3Cl)cc1-2

["1 to 10 µM", "≤ 1 µM", "1 to 10 µM", "1 to 10 µM", "1 to 10 µM"]

Please state IC50 for every compound in the list that follows.
1. N#Cc1ccc(C(=O)Nc2ccc3c(c2)-c2c(c(C(N)=O)nn2-c2ccc4c(c2)OCO4)CC3)cc1
2. NC(=O)c1nn(-c2ccc(OC(F)(F)F)cc2)c2c1CCc1ccc(NC(=O)c3ccccc3Cl)cc1-2
3. CC(C)C(=O)Nc1ccc2c(c1)-c1c(c(C(N)=O)nn1-c1ccc(S(N)(=O)=O)cc1)CC2
4. COc1cccc(C(=O)Nc2ccc3c(c2)-c2c(c(C(N)=O)nn2-c2ccc(S(C)(=O)=O)cc2)CC3)c1
5. CS(=O)(=O)c1ccc(C(=O)Nc2ccc3c(c2)-c2c(c(C(N)=O)nn2-c2ccc(OCC(O)CO)cc2)CC3)c(Cl)c1 (stereo not drawn)

1. 1 to 10 µM
2. 1 to 10 µM
3. 1 to 10 µM
4. 1 to 10 µM
5. ≤ 1 µM

Please state IC50 for every compound in the list that follows.
1. C[S+]([O-])c1ccc(-n2nc(C(N)=O)c3c2-c2cc(NC(=O)c4cc(N)ccc4Cl)ccc2CC3)cc1 (stereo not drawn)
2. CC1Cc2c(C(N)=O)nn(-c3ccc(F)cc3)c2-c2cc(NC(=O)c3cc(N4CCN(C)CC4)ccc3Cl)ccc21 (stereo not drawn)
3. CSc1ncc(Cl)c(C(=O)Nc2ccc3c(c2)-c2c(c(C(N)=O)nn2-c2ccc4c(c2)OCO4)CC3)n1

1: ≤ 1 µM; 2: ≤ 1 µM; 3: ≤ 1 µM
